- experimental-system: Serine/threonine-protein kinase Nek6 (Homo sapiens);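 also: values are mean inhibition of NEK6 from the GSK PKIS screen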
- measurement-setup: at 1 µM
measured-quantity: inhibition (%)
Express your answer in %, writing the number without its unit.

The cases that follow already have their inhibition on record.
{"compound": "CCCN1CCCC(c2ccc(Nc3nc(Nc4cc(F)ccc4C(N)=O)c4cc[nH]c4n3)c(OC)c2)C1 (stereo not given)", "measured-value": 3.03}
{"compound": "COC(=O)c1ccc2c(c1)C(=Cc1cc(Br)c(O)c(Br)c1)C(=O)N2", "measured-value": 2.21}
{"compound": "Cc1ccc(O)cc1Nc1ccnc2ccc(S(C)(=O)=O)cc12", "measured-value": 4.89}
{"compound": "NS(=O)(=O)c1ccc(Nc2cc(-c3cccc(O)c3)n[nH]2)cc1", "measured-value": -3.5}

[ask] Looking for the measured inhibition of COc1cccc(-n2nc(C)c3c(N/N=C(\C)c4ccncc4)ncnc32)c1 , can you help?
[reply] 1.26
